Record form. Attribute: binding activity, % of wild type. Fill in for each entry.
- MEASURED_ON: PD-1 (UniProt Q15116 25-167, limits assumed)
- Sequence (Q15116 25-167 limits assumed): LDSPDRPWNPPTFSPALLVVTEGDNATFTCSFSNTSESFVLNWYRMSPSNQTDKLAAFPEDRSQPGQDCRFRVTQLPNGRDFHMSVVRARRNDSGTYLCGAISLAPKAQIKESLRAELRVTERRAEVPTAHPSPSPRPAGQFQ
- PROTOCOL_DETAILS: ELISA; S13 on the Cys
Give just the number in %; leave the unit off.

Entry anti-PD-1 antibody 2 HC Gly9Cys (antibody, human IgG4 S228P, kappa, V domains shown, arm on Cys9 as named in each row) VH: QVQLVESGCGVVQPGRSLRLDCKASGITFSNSGMHWVRQAPGKGLEWVAVIWYDGSKRYYADSVKGRFTISRDNSKNTLFLQMNSLRAEDTAVYYCATNDDYWGQGTLVTVSS VL: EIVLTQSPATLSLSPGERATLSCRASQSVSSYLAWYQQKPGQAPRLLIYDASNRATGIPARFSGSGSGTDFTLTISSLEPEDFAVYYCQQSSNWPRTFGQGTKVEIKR — recorded binding activity, % of wild type = 24.6

Quick note, binding activity, % of wild type for anti-PD-1 antibody 2 HC Ser25Cys (antibody, human IgG4 S228P, kappa, V domains shown, arm on Cys25 as named in each row) VH: QVQLVESGGGVVQPGRSLRLDCKACGITFSNSGMHWVRQAPGKGLEWVAVIWYDGSKRYYADSVKGRFTISRDNSKNTLFLQMNSLRAEDTAVYYCATNDDYWGQGTLVTVSS VL: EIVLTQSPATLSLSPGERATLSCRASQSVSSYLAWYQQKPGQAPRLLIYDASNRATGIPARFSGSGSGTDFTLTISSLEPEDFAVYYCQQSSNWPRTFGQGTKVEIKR landed at 27

Lab book: binding activity, % of wild type of anti-PD-1 antibody 2 HC Gly15Cys (antibody, human IgG4 S228P, kappa, V domains shown, arm on Cys15 as named in each row) VH: QVQLVESGGGVVQPCRSLRLDCKASGITFSNSGMHWVRQAPGKGLEWVAVIWYDGSKRYYADSVKGRFTISRDNSKNTLFLQMNSLRAEDTAVYYCATNDDYWGQGTLVTVSS VL: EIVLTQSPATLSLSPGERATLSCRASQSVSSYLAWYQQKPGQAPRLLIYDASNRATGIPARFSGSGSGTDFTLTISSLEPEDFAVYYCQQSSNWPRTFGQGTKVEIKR noted as 21.5

So, anti-PD-1 antibody 2 HC Ser85Cys (antibody, human IgG4 S228P, kappa, V domains shown, arm on Cys85 as named in each row) VH: QVQLVESGGGVVQPGRSLRLDCKASGITFSNSGMHWVRQAPGKGLEWVAVIWYDGSKRYYADSVKGRFTISRDNSKNTLFLQMNCLRAEDTAVYYCATNDDYWGQGTLVTVSS VL: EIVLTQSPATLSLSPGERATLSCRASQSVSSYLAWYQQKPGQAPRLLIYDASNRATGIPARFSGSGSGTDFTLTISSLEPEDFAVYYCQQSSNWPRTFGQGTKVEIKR ? Its binding activity, % of wild type was 32.3

Recorded binding activity, % of wild type (binder anti-PD-1 antibody 2 HC Thr91Cys (antibody, human IgG4 S228P, kappa, V domains shown, arm on Cys91 as named in each row) VH: QVQLVESGGGVVQPGRSLRLDCKASGITFSNSGMHWVRQAPGKGLEWVAVIWYDGSKRYYADSVKGRFTISRDNSKNTLFLQMNSLRAEDCAVYYCATNDDYWGQGTLVTVSS VL: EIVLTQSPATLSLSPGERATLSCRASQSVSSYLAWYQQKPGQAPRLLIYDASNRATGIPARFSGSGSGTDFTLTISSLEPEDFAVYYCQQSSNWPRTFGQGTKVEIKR ): 21.7
